The values you see were collected from patent US10752624B2.

- target-of-assay: LRRK2 (Homo sapiens, UniProt Q5S007)
- Sequence (Q5S007 970-2527 limits assumed): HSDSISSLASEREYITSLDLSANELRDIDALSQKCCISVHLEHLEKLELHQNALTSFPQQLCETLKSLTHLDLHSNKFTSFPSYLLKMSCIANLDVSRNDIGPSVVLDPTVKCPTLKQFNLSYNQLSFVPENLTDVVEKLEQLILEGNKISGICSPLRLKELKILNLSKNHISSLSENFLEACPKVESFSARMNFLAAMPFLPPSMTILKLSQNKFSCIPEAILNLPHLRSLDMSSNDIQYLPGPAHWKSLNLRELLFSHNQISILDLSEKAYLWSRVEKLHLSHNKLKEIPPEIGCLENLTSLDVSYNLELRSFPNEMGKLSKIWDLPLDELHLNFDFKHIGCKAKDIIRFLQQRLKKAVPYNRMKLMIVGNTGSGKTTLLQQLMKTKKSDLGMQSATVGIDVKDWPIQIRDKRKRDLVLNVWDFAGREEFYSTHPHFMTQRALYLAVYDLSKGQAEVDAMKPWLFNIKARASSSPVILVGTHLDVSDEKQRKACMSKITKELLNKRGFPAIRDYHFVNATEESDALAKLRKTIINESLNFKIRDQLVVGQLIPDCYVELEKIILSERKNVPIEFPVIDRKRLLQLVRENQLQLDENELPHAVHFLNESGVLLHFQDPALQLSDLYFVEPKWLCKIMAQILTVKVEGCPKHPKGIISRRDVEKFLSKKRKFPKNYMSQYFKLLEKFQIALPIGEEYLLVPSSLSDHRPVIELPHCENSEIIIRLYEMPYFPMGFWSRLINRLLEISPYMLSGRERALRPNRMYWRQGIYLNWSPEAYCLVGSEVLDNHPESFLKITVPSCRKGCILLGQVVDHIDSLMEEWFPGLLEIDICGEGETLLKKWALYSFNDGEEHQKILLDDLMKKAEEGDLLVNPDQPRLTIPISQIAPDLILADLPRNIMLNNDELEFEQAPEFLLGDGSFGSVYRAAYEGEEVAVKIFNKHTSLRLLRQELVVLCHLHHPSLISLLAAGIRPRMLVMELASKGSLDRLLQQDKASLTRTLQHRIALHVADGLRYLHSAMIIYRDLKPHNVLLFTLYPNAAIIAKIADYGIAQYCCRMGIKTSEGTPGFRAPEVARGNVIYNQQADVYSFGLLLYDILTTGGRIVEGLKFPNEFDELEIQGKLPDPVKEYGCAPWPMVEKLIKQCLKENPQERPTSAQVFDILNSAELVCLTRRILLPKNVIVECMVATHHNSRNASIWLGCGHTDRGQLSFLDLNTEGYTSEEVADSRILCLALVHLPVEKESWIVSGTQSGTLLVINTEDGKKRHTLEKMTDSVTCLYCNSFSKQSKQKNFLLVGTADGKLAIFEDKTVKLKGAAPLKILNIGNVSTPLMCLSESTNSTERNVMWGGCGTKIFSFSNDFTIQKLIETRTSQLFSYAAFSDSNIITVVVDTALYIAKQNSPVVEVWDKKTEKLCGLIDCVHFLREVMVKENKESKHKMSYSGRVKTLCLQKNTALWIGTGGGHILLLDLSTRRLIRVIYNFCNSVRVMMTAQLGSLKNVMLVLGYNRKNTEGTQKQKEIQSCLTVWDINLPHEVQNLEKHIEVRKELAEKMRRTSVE
- measurement-protocol: LRRK2-LRRK2 G2019S-Assay (LanthaScreen Eu Kinase Binding Assay)
- condition-details: 5 nM LRRK2, 10 nM tracer 236, 2 nM EU-Anti-GST antibody, 1 h at RT; read-out: LRRK2 Activities: IC50
recorded-endpoint: IC50

compound: CS(=O)(=O)c1cccc2nc(Nc3ccc(N4CCOCC4)cc3)c3[nH]ncc3c12 [Example 92]
endpoint-result: < 10 nM
--
compound: COc1ccc2nc(Nc3ccc4c(c3)N(C)C(=O)CO4)c3n[nH]cc3c2c1 [Example 322]
endpoint-result: 100 to 1000 nM
--
compound: Cc1nn(C(C)C)cc1Nc1nc2ccc(S(C)(=O)=O)cc2c2cn[nH]c12 [Example 213]
endpoint-result: < 10 nM
--
compound: Cc1ccc2nc(Nc3ccc(N4CCOCC4)cc3)c3[nH]ncc3c2c1 [Example 74]
endpoint-result: 10 to 100 nM
--
compound: COc1cccc2nc(Nc3ccc(C(=O)N4CCC(N5CCN(C)CC5)CC4)cc3)c3[nH]ncc3c12 [Example 39]
endpoint-result: 10 to 100 nM
--
compound: CC(C)(C)n1cc(Nc2nc3ccc(S(C)(=O)=O)cc3c3cn[nH]c23)cn1 [Example 195]
endpoint-result: < 10 nM
--
compound: CSc1ccc2nc(Nc3ccc(CN(C)C)cc3)c3[nH]ncc3c2c1 [Example 48]
endpoint-result: 10 to 100 nM
--
compound: COc1ccc2nc(Nc3ccc(CN4CCC(N5CCN(C)CC5)CC4)cc3)c3n[nH]cc3c2c1 [Example 22]
endpoint-result: 100 to 1000 nM
--
compound: COc1ccc2nc(Nc3cnn(C)n3)c3n[nH]cc3c2c1 [Example 122]
endpoint-result: 100 to 1000 nM

----------
- target-of-assay: LRRK2 (Homo sapiens, UniProt Q5S007)
- measurement-protocol: LRRK2-LRRK2 G2019S-Assay (LanthaScreen Eu Kinase Binding Assay)
- condition-details: 5 nM LRRK2, 10 nM tracer 236, 2 nM EU-Anti-GST antibody, 1 h at RT; read-out: LRRK2 Activities: IC50
pIC50: −log10 of the molar value.

smiles-record: COCCn1ncc(Nc2nc3ccc(S(C)(=O)=O)cc3c3cn[nH]c23)c1C(F)(F)F
target-of-assay: LRRK2 (Homo sapiens, UniProt Q5S007)
pIC50: 7.00 to 8.00

smiles-record: COc1cccc2nc(Nc3cnn(C4CCN(C(C)(C)C)CC4)c3)c3[nH]ncc3c12
target-of-assay: LRRK2 (Homo sapiens, UniProt Q5S007)
pIC50: > 8.00

smiles-record: COc1cccc2c1nc(Nc1cnn(C3CCOCC3)c1)c1[nH]ncc12
target-of-assay: LRRK2 (Homo sapiens, UniProt Q5S007)
pIC50: 6.00 to 7.00

smiles-record: COc1ccc2nc(Nc3cnn(C4CCN(C(C)(C)C)CC4)c3)c3[nH]ncc3c2c1
target-of-assay: LRRK2 (Homo sapiens, UniProt Q5S007)
pIC50: 7.00 to 8.00

smiles-record: COc1ccc2nc(Nc3ccc4c(c3)S(=O)(=O)CC4)c3n[nH]cc3c2c1
target-of-assay: LRRK2 (Homo sapiens, UniProt Q5S007)
pIC50: 6.00 to 7.00

smiles-record: COc1ccc2nc(Nc3cn(C)nc3C)c3n[nH]cc3c2c1
target-of-assay: LRRK2 (Homo sapiens, UniProt Q5S007)
pIC50: 6.00 to 7.00

smiles-record: COCCCn1ncc(Nc2nc3ccc(S(C)(=O)=O)cc3c3cn[nH]c23)c1Cl
target-of-assay: LRRK2 (Homo sapiens, UniProt Q5S007)
pIC50: 7.00 to 8.00

smiles-record: COc1cccc2nc(Nc3ccc4c(c3)S(=O)(=O)CC4)c3[nH]ncc3c12
target-of-assay: LRRK2 (Homo sapiens, UniProt Q5S007)
pIC50: 7.00 to 8.00

smiles-record: COCCn1cc(Nc2nc3ccc(S(C)(=O)=O)cc3c3cn[nH]c23)c(C)n1
target-of-assay: LRRK2 (Homo sapiens, UniProt Q5S007)
pIC50: 7.00 to 8.00

smiles-record: COCCn1ncc(Nc2nc3cccc(OC)c3c3cn[nH]c23)c1F
target-of-assay: LRRK2 (Homo sapiens, UniProt Q5S007)
pIC50: 7.00 to 8.00

smiles-record: CC(C)n1ncc(Nc2nc3ccc(S(C)(=O)=O)cc3c3cn[nH]c23)c1C(N)=O
target-of-assay: LRRK2 (Homo sapiens, UniProt Q5S007)
pIC50: 6.00 to 7.00

smiles-record: CN1CCN(C2CCN(c3ccc(Nc4nc5cccc(S(C)(=O)=O)c5c5cn[nH]c45)cc3)CC2)CC1
target-of-assay: LRRK2 (Homo sapiens, UniProt Q5S007)
pIC50: 6.00 to 7.00

smiles-record: COc1cc(N2CCOC2=O)ccc1Nc1nc2ccc(S(C)(=O)=O)cc2c2cn[nH]c12
target-of-assay: LRRK2 (Homo sapiens, UniProt Q5S007)
pIC50: 6.00 to 7.00

smiles-record: CC(C)n1cc(Nc2nc3cc(S(C)(=O)=O)ccc3c3cn[nH]c23)cn1
target-of-assay: LRRK2 (Homo sapiens, UniProt Q5S007)
pIC50: 7.00 to 8.00

smiles-record: CSc1ccc2nc(Nc3ccc(N4CCOCC4)cc3)c3[nH]ncc3c2c1
target-of-assay: LRRK2 (Homo sapiens, UniProt Q5S007)
pIC50: 7.00 to 8.00

smiles-record: COc1ccc2nc(Nc3ccc(F)c(S(C)(=O)=O)c3)c3n[nH]cc3c2c1
target-of-assay: LRRK2 (Homo sapiens, UniProt Q5S007)
pIC50: 6.00 to 7.00

smiles-record: Cc1nn(CC(C)(C)O)cc1Nc1nc2ccc(S(C)(=O)=O)cc2c2c[nH]nc12
target-of-assay: LRRK2 (Homo sapiens, UniProt Q5S007)
pIC50: 6.00 to 7.00

smiles-record: COc1cccc2nc(Nc3cnn(C(C)C)c3C(N)=O)c3[nH]ncc3c12
target-of-assay: LRRK2 (Homo sapiens, UniProt Q5S007)
pIC50: 7.00 to 8.00

smiles-record: CC(C)(C#N)n1cc(Nc2nc3cc(S(C)(=O)=O)ccc3c3cn[nH]c23)cn1
target-of-assay: LRRK2 (Homo sapiens, UniProt Q5S007)
pIC50: 7.00 to 8.00

smiles-record: COc1ccc2nc(Nc3ccc(N4CCOCC4)c(S(C)(=O)=O)c3)c3n[nH]cc3c2c1
target-of-assay: LRRK2 (Homo sapiens, UniProt Q5S007)
pIC50: 6.00 to 7.00

smiles-record: COc1nn(C(C)C)cc1Nc1nc2cccc(OC)c2c2cn[nH]c12
target-of-assay: LRRK2 (Homo sapiens, UniProt Q5S007)
pIC50: > 8.00

smiles-record: COc1ccc2nc(Nc3ccc(C(=O)N4CCC(N5CCN(C)CC5)CC4)cc3)c3n[nH]cc3c2c1
target-of-assay: LRRK2 (Homo sapiens, UniProt Q5S007)
pIC50: 7.00 to 8.00

smiles-record: CN1CCN(c2ccc(Nc3nc4ccc(S(C)(=O)=O)cc4c4cn[nH]c34)cn2)CC1
target-of-assay: LRRK2 (Homo sapiens, UniProt Q5S007)
pIC50: 7.00 to 8.00

smiles-record: COc1ccc2nc(Nc3ccc(C(=O)N4CCOCC4)c([N+](=O)[O-])c3)c3n[nH]cc3c2c1
target-of-assay: LRRK2 (Homo sapiens, UniProt Q5S007)
pIC50: 6.00 to 7.00

----------
# IC50 values compiled below
- target-of-assay: SYK kinase (Homo sapiens, UniProt P43405)
recorded-endpoint: IC50

molecule: CS(=O)(=O)c1ccc2nc(Nc3cnn(C4CCNC4)c3)c3n[nH]cc3c2c1 (centres unmarked)
target-of-assay: SYK kinase (Homo sapiens, UniProt P43405)
endpoint-result: < 10 nM

molecule: CN1CCN(C2CCN(c3ccc(Nc4nc5cccc(F)c5c5cn[nH]c45)cc3)CC2)CC1
target-of-assay: SYK kinase (Homo sapiens, UniProt P43405)
endpoint-result: 100 to 1000 nM

molecule: CS(=O)(=O)c1ccc2nc(Nc3cnn(-c4ccccn4)c3)c3n[nH]cc3c2c1
target-of-assay: SYK kinase (Homo sapiens, UniProt P43405)
endpoint-result: 100 to 1000 nM

molecule: CS(=O)(=O)c1ccc2nc(Nc3cnn(C4CC4)c3)c3[nH]ncc3c2c1
target-of-assay: SYK kinase (Homo sapiens, UniProt P43405)
endpoint-result: < 10 nM

molecule: CS(=O)(=O)c1ccc2nc(Nc3ccc(N4CCN(CCO)CC4)cc3)c3[nH]ncc3c2c1
target-of-assay: SYK kinase (Homo sapiens, UniProt P43405)
endpoint-result: 10 to 100 nM

----------
- target-of-assay: LRRK2 (Homo sapiens, UniProt Q5S007)
- measurement-protocol: LRRK2-LRRK2 G2019S-Assay (LanthaScreen Eu Kinase Binding Assay)
- condition-details: 5 nM LRRK2, 10 nM tracer 236, 2 nM EU-Anti-GST antibody, 1 h at RT; read-out: LRRK2 Activities: IC50
pIC50: −log10 of the molar value.

compound: COc1ccc2nc(Nc3ccc(N4CCOC4=O)cc3)c3n[nH]cc3c2c1 [Example 25]
pIC50: 6.00 to 7.00
//
compound: COCCn1ncc(Nc2nc3cccc(OC)c3c3cn[nH]c23)c1Cl [Example 241]
pIC50: 7.00 to 8.00
//
compound: CS(=O)(=O)c1ccc2c(c1)nc(Nc1cnn(C3CCOCC3)c1)c1[nH]ncc12 [Example 169]
pIC50: 7.00 to 8.00
